Numbers sourced from PubChem BioAssay AID1159580.

assay: chemical genetic growth profiling, strain panel (AID 1159580);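 also: tested at 20 µM; growth read once vehicle control cultures reached saturation at 30 °C; 1 = growth at the plate median or of vehicle wells; lower values mean less growth of the strain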; conditions: S. cerevisiae deletion strains, growth OD, locus YFR003C, strain YPI1
The whole screen tested about 5,500 compounds, of which about 2,000 (36%) were called active. Not shown: some 18% with an inconclusive outcome. Rule as the data show it: active = normalized growth mostly below about 0.91 (no sharp cut-off); inconclusive = no clear call, values can overlap the other calls; inactive = mostly above about 0.92. Some of the results follow.
Returns: one label drawn from yes (1) for active, no (0) for inactive

Consider the following illustrative entries.
>  <MOLECULE>
O=[N+]([O-])c1ccccc1CS(=O)(=O)c1nc2ccccc2s1

>  <CLASS ASSIGNMENT>
no (0)

$$$$
>  <MOLECULE>
O=C(NC(=S)Nc1cccc(C(F)(F)F)c1)c1ccc2nonc2c1

>  <CLASS ASSIGNMENT>
no (0)

$$$$
>  <MOLECULE>
CCOC(=O)C1=C(N)OC2=C(C(=O)CC(C)(C)C2)C1c1ccc(Cl)cc1Cl (stereo unspecified)

>  <CLASS ASSIGNMENT>
no (0)

$$$$

Incoming: // param item: N#CC(C#N)=C/C=C(/Sc1nc2ccccc2s1)c1ccc(Br)cc1 ; yields the recorded call
Outgoing: yes (1)

Incoming: Outcome logged for O=C(Nc1ccc(N2CCOCC2)cc1)c1ccc(-n2cccn2)cc1 in this assay:
Outgoing: no (0)
